Data provenance is the supplement of paper PMC10567573.

B1: INTS3 (parent)
chain: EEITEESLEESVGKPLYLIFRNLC

variants of: B1; test: protein stability index of a GFP-peptide fusion (GPS, HEK-293T) (PSI 1-6); higher = more stable; details: c terminus: a fixed tail appended;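 further: lentivirally expressed fusions sorted by FACS into six bins by GFP to DsRed ratio, PSI derived from sequencing read proportions per bin multiplied by bin number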
Quantity: protein stability index
Enter a number only.

# example entries with known answers
Variant: E9D
Quantity: protein stability index
Result Value: 2.77

Variant: L8S
Quantity: protein stability index
Result Value: 3.48

Variant: S11N
Quantity: protein stability index
Result Value: 2.96

Variant: E5Q
Quantity: protein stability index
Result Value: 2.37

Variant: E10M
Quantity: protein stability index
Result Value: 2.24

Ask | Returns the measured protein stability index for the input variant. Input: `E9Y`
Reply | 1.96

Ask | Returns the measured protein stability index for the input variant. Input: `Y17L`
Reply | 2.28

Ask | Returns the measured protein stability index for the input variant. Input: `E2P`
Reply | 2.51

Ask | Returns the measured protein stability index for the input variant. Input: `E1C`
Reply | 2.29

Ask | Returns the measured protein stability index for the input variant. Input: `Y17V`
Reply | 2.68

Ask | Returns the measured protein stability index for the input variant. Input: `Y17E`
Reply | 3.33

Ask | Returns the measured protein stability index for the input variant. Input: `E2N`
Reply | 2.9

Ask | Returns the measured protein stability index for the input variant. Input: `E5S`
Reply | 2.5

Ask | Returns the measured protein stability index for the input variant. Input: `I3F`
Reply | 2.79

Ask | Returns the measured protein stability index for the input variant. Input: `K14N`
Reply | 3.52

Ask | Returns the measured protein stability index for the input variant. Input: `E9N`
Reply | 2.3

Ask | Returns the measured protein stability index for the input variant. Input: `L8W`
Reply | 1.95

Ask | Returns the measured protein stability index for the input variant. Input: `E6M`
Reply | 2

Ask | Returns the measured protein stability index for the input variant. Input: `L16H`
Reply | 3.09
